assay_readout: melting point

# example entries with known answers
INSERT INTO measurements (compound, result) VALUES
  ('CCCCCC(CC(=O)Nc1cc(C(N)=O)ccc1CCCC)c1ccc(C(O)C(C)C)cc1OC (stereo not given)', '162 to 163 °C'),
  ('O=C(CCc1cc2ccccc2s1)N1C(=O)OC[C@@H]1Cc1ccccc1', '119 to 122 °C'),
  ('COc1c(C)c(C)c(OC)c(C(O)(c2ccc(F)cc2)C(C)C)c1C (stereo not given)', '129 to 130 °C'),
  ('CCOC(=O)C(=CNc1sc(Cl)cc1C(=O)OC)C(=O)OCC', '89.5 to 90.5 °C');

The record that follows has no melting point shown yet.
Need melting point, item CC(C)(O)c1cccc(-c2ccc3nc(-c4ccc5cc[nH]c5c4)cn3c2)c1 203 to 204 °C

Cited source: a melting point compilation (Tetko et al.; mined from patent text by program, amines drawn as free bases though some values may be those of a salt)
